- Test system: corn plants (variety NK OCTET)
- METHOD_NOTES: Reduced plant water use in corn (foliar spray, repeated weighing of pots)
- Format: in vivo
- CONDITIONS_USED: Zea mays, 48 h, corn plants sprayed at 500 μM, water use during day time vs negative control, 2 DAA p.m. (14:00-19:50), average of 6 pots, read-out: % WU 2 DAA PM
READOUT: change in vivo at 500 µM (%)
State the answer as a number, implicitly in %.

Inquiry: For the compound shown here, CCCN1C(=O)CCc2cc(C3(NS(=O)(=O)c4ccc(F)cc4F)CC3)ccc21 [Compound 15.006] , give the reported change in vivo at 500 µM.
Reply text: 1.1

Inquiry: Entry CCN1C(=O)CCc2cc(CNS(=O)(=O)/C=C/c3cccc(Cl)c3)ccc21 [Compound 2.069] please
Reply text: -1.9

Inquiry: Try this compound next: CCN1C(=O)CCc2cc(CNS(=O)(=O)c3ccc(C)s3)ccc21 [Compound 2.061]
Reply text: -0.8

Inquiry: Similarly, CCCN1C(=O)CCc2cc(CNS(=O)(=O)c3ccc(C)s3)ccc21 [Compound 3.061] ?
Reply text: -3.9

Inquiry: Subsequent entry: CCCN1C(=O)CCc2cc(CNS(=O)(=O)/C=C/c3ccc(Br)cc3)ccc21 [Compound 3.052]
Reply text: -2.5

Inquiry: What about this compound? CCCN1C(=O)CCc2cc(C3(NS(=O)(=O)c4ccc(F)cc4)CC3)ccc21 [Compound 15.009]
Reply text: -5.7

Inquiry: Another compound: C=CCS(=O)(=O)NCc1ccc2c(c1)CCC(=O)N2CCC [Compound 3.071]
Reply text: -2.4

Inquiry: Similarly, CCN1C(=O)CC(C)c2cc(CNS(=O)(=O)c3ccc(F)cc3F)ccc21 (stereo not drawn) [Compound 20.006] ?
Reply text: -4.3

Inquiry: Also need CCCN1C(=O)CCc2cc(CNS(=O)(=O)c3ccc(Cl)cc3)ccc21 [Compound 3.004] , thanks.
Reply text: -10.7

Inquiry: Check CCCN1C(=O)CCc2cc(CNS(=O)(=O)CCC)ccc21 [Compound 3.062] too.
Reply text: -6.3

Inquiry: Item: CCCN1C(=O)CCc2cc(CNS(=O)(=O)c3ccccc3F)ccc21 [Compound 3.007]
Reply text: -5.9

Inquiry: Then this compound: CCCN1C(=O)CCc2cc(CNS(=O)(=O)CCC(F)(F)F)ccc21 [Compound 3.067]
Reply text: -10.1

Inquiry: Then what about the compound CCN1C(=O)CCc2cc(CNS(=O)(=O)c3ccc(Br)cc3)ccc21 [Compound 2.002] ?
Reply text: -1.7

Inquiry: Would you kindly repeat that for CCCN1C(=O)CCc2cc(CNS(=O)(=O)c3ccsc3)ccc21 [Compound 3.068] ?
Reply text: -9.4

Inquiry: // repeat for CCCN1C(=O)CCc2cc(CNS(=O)(=O)c3ccc(F)cc3)ccc21 [Compound 3.009] and report
Reply text: -8.2

Inquiry: For CCCN1C(=O)CCc2cc(C3(NS(=O)(=O)c4ccccc4)CC3)ccc21 [Compound 15.001] then?
Reply text: -1.8

Inquiry: Subsequent entry: CCN1C(=O)CCc2cc(CNS(=O)(=O)c3ccsc3)ccc21 [Compound 2.068]
Reply text: -9.1

Inquiry: What about this compound? CCCN1C(=O)CCc2cc(CNS(=O)(=O)c3ccc(OC)cc3)ccc21 [Compound 3.010]
Reply text: -2.2
